# study_system: 5-hydroxytryptamine receptor 1A (Homo sapiens, UniProt P08908)
# Sequence (P08908 whole entry): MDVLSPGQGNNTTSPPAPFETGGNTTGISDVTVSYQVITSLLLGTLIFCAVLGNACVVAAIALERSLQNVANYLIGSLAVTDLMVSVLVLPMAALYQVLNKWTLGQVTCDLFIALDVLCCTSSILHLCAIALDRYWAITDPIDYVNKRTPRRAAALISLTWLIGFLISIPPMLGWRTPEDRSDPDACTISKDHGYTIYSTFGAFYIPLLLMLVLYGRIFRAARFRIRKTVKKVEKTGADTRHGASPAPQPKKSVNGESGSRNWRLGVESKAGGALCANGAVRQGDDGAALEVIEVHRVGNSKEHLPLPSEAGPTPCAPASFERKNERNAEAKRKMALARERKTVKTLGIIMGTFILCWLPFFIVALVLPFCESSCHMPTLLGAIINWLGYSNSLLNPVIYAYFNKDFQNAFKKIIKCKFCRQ
// values below are reported Ki
measurement_type: Ki

{"columns": ["molecule", "measurement_type", "value_measured"],
 "data": [
  ["CCC(O)CNCCOc1ccc2oc3ccccc3c(=O)c2c1 (configuration not stated)", "Ki", "320 nM"],
  ["CCC(CO)NCCCOc1ccc2oc3ccccc3c(=O)c2c1 (configuration not stated)", "Ki", "> 5000 nM"]
]}
